- tested_on: NLRP3 inflammasome (Mus musculus)
- Construct: endogenous in cells; host or cells: primary mouse bone marrow-derived dendritic cells (BMDCs), LPS-primed
- method_description: IL-1β release from LPS-primed BMDCs (ELISA) as readout of NLRP3 inflammasome activation
- Type: cell-based
- measurement_conditions: compound 50 μM; LPS-primed BMDCs
Reported Average IL-1β by item:
Please give a number only; it is taken to be in ng/mL.

Average IL-1β measured on Cc1ccc(NC(=O)Nc2ccccc2)cc1F = 0.951

Average IL-1β measured on O=C(Nc1ccccc1)Nc1cccc(Br)c1 = 0.233

Average IL-1β measured on O=C(Nc1ccccc1)Nc1ccc(NC(=O)c2ccoc2)cc1 = 1.080

Average IL-1β measured on O=C(NCc1nc(C2CC2)no1)Nc1cccc(F)c1 = 0.078

Average IL-1β measured on O=C(Nc1ccccc1)Nc1ccc2c(c1)CCC2 = 0.265

Average IL-1β measured on O=C(NCc1nc(-c2cccnc2)no1)Nc1ccc([N+](=O)[O-])cc1Cl = 0.059

Average IL-1β measured on O=C(Nc1ccccc1)Nc1cccc(NC(=O)NC2CC2)c1 = 0.087

Average IL-1β measured on Cc1ccc(NC(=O)Nc2ccccc2)cc1NC(=O)C(F)F = 1.154

----------
- tested_on: NLRP3 inflammasome (Mus musculus, UniProt Q8R4B8)
- Construct: endogenous in cells; host or cells: primary mouse bone marrow-derived dendritic cells (BMDCs), LPS-primed
- Sequence (Q8R4B8 whole entry): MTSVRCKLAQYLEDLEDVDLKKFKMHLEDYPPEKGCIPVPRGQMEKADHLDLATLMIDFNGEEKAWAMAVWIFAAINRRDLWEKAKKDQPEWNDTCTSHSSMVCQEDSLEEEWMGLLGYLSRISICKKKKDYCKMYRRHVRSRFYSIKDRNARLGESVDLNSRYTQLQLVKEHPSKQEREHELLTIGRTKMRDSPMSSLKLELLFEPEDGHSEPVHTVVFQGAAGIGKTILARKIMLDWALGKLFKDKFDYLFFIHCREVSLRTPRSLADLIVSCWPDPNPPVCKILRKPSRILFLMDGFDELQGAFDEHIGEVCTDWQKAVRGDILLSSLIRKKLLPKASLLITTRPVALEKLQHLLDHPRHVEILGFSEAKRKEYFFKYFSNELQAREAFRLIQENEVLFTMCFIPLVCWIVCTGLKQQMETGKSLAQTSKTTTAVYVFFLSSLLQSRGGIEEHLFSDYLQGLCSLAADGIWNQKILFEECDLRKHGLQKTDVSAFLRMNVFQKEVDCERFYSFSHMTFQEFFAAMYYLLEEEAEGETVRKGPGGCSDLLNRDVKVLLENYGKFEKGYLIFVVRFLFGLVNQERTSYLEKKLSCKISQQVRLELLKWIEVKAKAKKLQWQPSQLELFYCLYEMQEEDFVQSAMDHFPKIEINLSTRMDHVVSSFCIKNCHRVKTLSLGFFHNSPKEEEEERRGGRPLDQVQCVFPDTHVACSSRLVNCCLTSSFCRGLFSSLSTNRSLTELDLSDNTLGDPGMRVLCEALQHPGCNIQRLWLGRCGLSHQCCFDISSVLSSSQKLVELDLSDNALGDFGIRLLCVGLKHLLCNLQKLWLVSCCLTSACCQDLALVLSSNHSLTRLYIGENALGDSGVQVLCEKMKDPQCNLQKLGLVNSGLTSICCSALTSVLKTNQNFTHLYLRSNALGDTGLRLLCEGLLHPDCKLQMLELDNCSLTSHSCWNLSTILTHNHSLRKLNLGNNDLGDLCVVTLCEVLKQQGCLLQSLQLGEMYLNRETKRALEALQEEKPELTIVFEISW
- method_description: IL-1β release from LPS-primed BMDCs (ELISA) as readout of NLRP3 inflammasome activation
- Assay type: cell-based
- measurement_conditions: IL-1β; 75 μM; positive control EN22 10 μM
Reported Average (% positive control) by item:
Please give a number only; it is taken to be in % positive control.

O=[N+]([O-])c1ccc(NC(=S)Nc2cccc(Cl)c2)c(Cl)c1; 1.872
S=C(Nc1ccccc1)Nc1ccc2ncccc2c1; 99.960
Cc1c(F)cccc1NC(=O)Nc1cccc(Cl)c1; 22.240

Reported NLRP3 inflammasome (Mus musculus, UniProt Q8R4B8) Average (% positive control) for item O=C(Nc1cc(Cl)cc(Cl)c1)Nc1ccc([N+](=O)[O-])cc1Cl was 15.328

----------
- System: BMDCs
- method_description: LDH release (lytic cell death, pyroptosis) from LPS-primed BMDCs
- Type: cell-based, mouse
- measurement_conditions: LDH release; 100 μM; positive control EN22 25 μM
We label by threshold. Values of Average (% positive control) strictly beneath 20 % positive control are Fulfilled. Values of 20 % positive control and up are Not fulfilled.

Please review the following examples before continuing.
O=C(NCCc1ccccc1)Nc1ccc2ncccc2c1; Not fulfilled
O=C(NCc1ccccc1)Nc1ccc2ncccc2c1; Not fulfilled
O=C(NCCCc1ccccc1)Nc1ccc2ncccc2c1; Not fulfilled

Moving on to another compound below.
Exercise: API: query returns whether the compound falls strictly under 20 % positive control in Average (% positive control). Query: O=C(NCc1ccccc1)NCc1ccc2ncccc2c1 [EN11-11, 3-benzyl-1-[(quinolin-6-yl)methyl]urea]
Key: Fulfilled

----------
- Tested on: BMDCs
- method_description: LDH release (lytic cell death, pyroptosis) from LPS-primed BMDCs
- Format: cell-based, mouse
- measurement_conditions: Mus musculus, BMDC, 20 μM; read-out: Average LDH release (% of max.)
Reported cytotoxicity at 20 µM by item:
Please give a number only; it is taken to be in %.

Reported BMDCs cytotoxicity at 20 µM for item COc1ccc(NC(=O)Nc2ccc3ncccc3c2)cc1 was 23.8

Reported BMDCs cytotoxicity at 20 µM for item O=C(Nc1ccccc1)Nc1ccc2ncccc2c1 was 53.3

Reported BMDCs cytotoxicity at 20 µM for item O=C(Nc1ccccc1)Nc1ccc2ncccc2n1 was 7.4

Reported BMDCs cytotoxicity at 20 µM for item O=C(Nc1ccccc1)Nc1ccc2ncc(Br)cc2c1 was 21.1

Reported BMDCs cytotoxicity at 20 µM for item N#Cc1ccc(NC(=O)Nc2ccc3ncccc3c2)cc1 was 11.7
